# neut IC50 (ug/ml) subtype A (wright) values compiled below
# experimental_target: RSV F on RSV subtype A virus (RSV-A2) (Respiratory Syncytial Virus, subtype A, …, UniProt P03420 26-574)
# assay_info: cell-based or functional assay

Some binders with recorded neut IC50 (ug/ml) subtype A (wright):
ADI-41256 (antibody, V domains shown, also called Ab 578; Antibody Number 578) VH: QVQLVQSGAEVKSPGSSATVSCKASGGTFGSYGISWVRQAPGQGLEWIGAIMPMFGTTNYAQKFQGRVTMTADESTSTVYMDVSSLRPDDTAVYYCVRDVFYDILTGYYDADYYHHYMDVWGKGTTVTVSS VL: DIVMTQSPLSLPVTLGQPASISCRSGQSLVHSDGNTYLNWFQQRPGQSPRRLIYKVSNRGSGVPDRFSGSGSGTDFTLKISRVEAEDVGVYFCMQGTHWPRTFGQGTKVDIK	0.019 µg/mL
ADI-41344 (antibody, V domains shown) VH: EVQLVESGGGLVKPGGSLRLSCAASGSSFSSYYMNWVRQAPGKGLEWVSSISSSSTYIDYADSVKGRFTISRDNAKNSLFLQMNSLRAEDTAVYYCARVSSPMIRGYYLDYWGQGTLVTVSS VL: QPVLTQPPSVSGAPGQRVTISCTGSSSNIGAGYDVHWYQQLPGTAPKLVIHGNSNRPSGVPDRFSGSKSGTSASLAITGLQGEDEADYYCQSYDSSLSGSVFGGGTKLTVL	0.064 µg/mL
ADI-41594 (antibody, V domains shown) VH: EVQLVESGGGLVKPGGSLRLSCAASGFSFSSYYMNWVRQAPGKGLEWVSSISPSSSYTNYADSVKGRFTISRDNAKDSLYLQMNSLRAEDTAVYYCARDGLLGITIFGVVQDYWGQGTLVTVSS VL: QSVVTQPPSVSGAPGQRVTISCTGSSSNIGAGYDVHWYQQLPGTAPKLLIYGNTNRPSGVPDRFSASKSGTSASLAITGLQAEDEADYYCQSYDSSLSVVFGGGTKLTVL	0.041 µg/mL
ADI-41222 (antibody, V domains shown) VH: QVTLKESGGGVVQPGRSQRLSCTASGFNFHNYAMHWVRQAPGKGLEWVAVISYDGSNKNFADSVKGRFTISRDNSKNTLNLQMNNLRAEDTAVYYCVRDIVRGSPLFDYWGQGTLVTVSS VL: QPVLTQPPSLSVAPGQTAWITCGGNNIGSKIVHWYQQKPGQAPVVVVYDDDDRPSGIPERFSGSNSGNTATLTIRRVEVGDEADYYCQVWDRSSDNYVFGTGTKVSVL	0.016 µg/mL

Now for the binder whose neut IC50 (ug/ml) subtype A (wright) we want.
Form field neut IC50 (ug/ml) subtype A (wright), entry ADI-41191 (antibody, V domains shown) VH: QVQLVQSGAEVKRPGASVKVSCKASGYIFSHYGISWVRQAPGQGLEWMAWISAYNGNTNYAQKLQGRVTVTTDTSTSTAYMELRSLRSDDTAVYYCAREPPSLSAAATLDYWGQGTLVTVSS VL: EIVMTQSPLSLPVTLGQPASISCRSNQSLVYSDGNIYLSWFQQRPGQSPRRLIYKVSNRDSGVPDRFSGSGSGTDFTLKISRVEAEDVAVYYCMQVTHWPHEFGQGTKLEIK : 0.071 µg/mL
